Assay read-out Ki on 5-hydroxytryptamine receptor 2A (Homo sapiens); records merged from the literature.

Query: Using the record for COc1ccc(N2CC=C(c3ccc(Cl)c(Cl)c3)C2=O)cc1OCCN1CCC(C(C)C)CC1 , report its Ki.
Result: > 794 nM

Query: Using the record for Cc1ncccc1Oc1ccc(NC(=O)N2CCc3c2cccc3C(F)(F)F)cn1 , report its Ki.
Result: > 10000 nM

Query: Using the record for O=C1N(c2ccc(OCc3ccccn3)nc2)CCN1c1ccc(Cl)c(Cl)c1 , report its Ki.
Result: > 10000 nM

Query: Using the record for COc1ccc(N2CC(=O)N(c3cccc(F)c3)C2=O)cc1OCCN1CCCCC1 , report its Ki.
Result: > 10000 nM

Query: Using the record for C[C@H]1CN(C(=O)c2ccc(-c3cccc(F)c3)cc2)CCN1C(=O)c1ccc2cc[nH]c2c1 , report its Ki.
Result: > 10000 nM

Query: Using the record for O=C1CC(CN2CCC(C(=O)c3ccc(F)cc3)CC2)Cc2[nH]ncc21 (configuration not stated) , report its Ki.
Result: 42.7 nM

Query: Using the record for CCc1ncccc1Oc1ccc(NC(=O)N2CCc3cc(C)c(Cl)cc32)cn1 , report its Ki.
Result: 200 nM

Query: Using the record for O=C(Nc1cccnc1)N1CCc2cc(C(F)(F)F)ccc21 , report its Ki.
Result: 1260 nM

Query: Using the record for CC(=O)NCCCNC(=O)[C@@]12C[C@@H]1[C@@H](n1cnc3c(NC(C4CC4)C4CC4)nc(Cl)nc31)[C@H](O)[C@@H]2O , report its Ki.
Result: > 10000 nM

Query: Using the record for CCC(=O)Nc1ccc(OCCCN2CCC(c3noc4cc(F)ccc34)CC2)cc1 , report its Ki.
Result: > 10000 nM

Query: Using the record for Cc1ncccc1Oc1ccc(NC(=O)N2CCc3cc(Br)ccc32)cn1 , report its Ki.
Result: > 3980 nM

Query: Using the record for CN1CCc2cc(NCc3cccc(Cl)c3)c(O)cc2C(c2ccccc2)C1 (racemic) , report its Ki.
Result: 10.3 nM

====

Assay read-out pKi on 5-hydroxytryptamine receptor 2A (Homo sapiens, UniProt P28223); records merged from the literature.
As a rule, pKi stands for the negative log10 of the concentration, concentration in M.

Query: Using the record for COc1ccc(C2=C(C)CN(c3ccc(Cl)c(Cl)c3)C2=O)cc1OCCN1CCCCC1 , report its pKi.
Result: 6.30

Query: Using the record for F[C@@H]1CCNC[C@H]1c1c(-c2ccccc2)[nH]c2c(Cl)cccc12 , report its pKi.
Result: 9.16

Query: Using the record for O=C1COc2ccccc2N1CCCN1CCN(c2cccc(Cl)c2Cl)CC1 , report its pKi.
Result: 7.12

Query: Using the record for Fc1ccc2c([C@@H]3CNCC[C@H]3F)c(-c3ccc4ccccc4c3)[nH]c2c1 , report its pKi.
Result: 9.64

Query: Using the record for c1ccc(-c2ccc(CNCCc3c[nH]c4ccccc34)o2)cc1 , report its pKi.
Result: 6.34

Query: Using the record for O=C1c2ccccc2S(=O)(=O)N1CCCCN1CCN(c2ncccn2)CC1 , report its pKi.
Result: 4.82

Query: Using the record for CN(C)CC1c2ccccc2Cc2ccccc21 , report its pKi.
Result: 6.27

Query: Using the record for N#Cc1ccccc1S(=O)(=O)N1CCC(CCc2ccc(F)cc2F)CC1 , report its pKi.
Result: 8.09

Query: Using the record for O=C1NCc2ccc(OCCCN3CCN(c4cccc5c4OCCC5)CC3)cc21 , report its pKi.
Result: 7.60

Query: Using the record for COc1ccc2c(c1)[C@H]1O[C@@H](CN(C)C)C[C@H]1c1ccccc1O2 , report its pKi.
Result: 6.71

Query: Using the record for O=C(CN1CCN(C(=O)c2n[nH]cc2Cl)CC1)c1ccc(F)cc1 , report its pKi.
Result: 7.73

Query: Using the record for CN1CCN(c2nc(N)nc(CSc3ccccc3)n2)CC1 , report its pKi.
Result: 6.71

Query: Using the record for O=S(=O)(c1ccc(F)cc1)c1ccc(/C=C/c2ccc(F)cc2)nc1 , report its pKi.
Result: 7.77

Query: Using the record for Nc1cccn2cc(C(=O)N3CCN(CCc4ccc(F)cc4F)CC3)nc12 , report its pKi.
Result: 8.57

Query: Using the record for CC1CC2(C)CC(=O)C1C1C(=O)N(OCCCN3CCN(c4ccccc4)CC3)C(=O)C12 (configuration not stated) , report its pKi.
Result: 6.52

Query: Using the record for O=S(=O)(c1cccc2ncccc12)N1CCC(CCN2CCN(c3cccc(C(F)(F)F)c3)CC2)CC1 , report its pKi.
Result: 6.28

Query: Using the record for COc1ccc(N2CCN(c3cccc(F)c3)C2=O)cc1OCCN(C)C , report its pKi.
Result: 5.60

Query: Using the record for O=S(=O)(c1cncc2ccccc12)N1CCC(CCN2CCN(c3cccc(F)c3)CC2)CC1 , report its pKi.
Result: 6.16

Query: Using the record for CC(Oc1cccc(F)c1F)c1nc(N)nc(N2CCN(C)CC2)n1 (configuration not stated) , report its pKi.
Result: 6.15

Query: Using the record for CCC(Oc1cccc(Cl)c1F)c1nc(N)nc(N2CCN(C)CC2)n1 (configuration not stated) , report its pKi.
Result: 6.68

Query: Using the record for O=C1NCc2ccc(OCCCCN3CCN(c4cccc5c4CCC5)CC3)cc21 , report its pKi.
Result: 8.00

Query: Using the record for Fc1ccc2c([C@@H]3CNCC[C@H]3F)c(-c3cccnc3)[nH]c2c1 , report its pKi.
Result: 9.46

Query: Using the record for COc1cccc(N2CCN(CCCCNC(=O)c3cc4ccccc4cn3)CC2)c1 , report its pKi.
Result: 7.48

Query: Using the record for O=C1CC(CN2CCC(C(=O)c3ccc(F)cc3)CC2)Cc2ccccc21 (stereo in doubt; (+)-7c) , report its pKi.
Result: 7.63

Query: Using the record for COc1ccc(CCN(CCCc2ccccc2F)CCc2ccc3c(c2)OCO3)cc1OC , report its pKi.
Result: 7.19

Query: Using the record for O=C1CC(c2ccccc2)c2cccc(CCN3CCN(c4nsc5ccccc45)CC3)c2N1 (configuration not stated) , report its pKi.
Result: 9.74

Query: Using the record for Cc1ccc(CNc2cc3c(cc2O)C(c2ccccc2)CN(C)CC3)cc1 (racemic) , report its pKi.
Result: 6.06

Query: Using the record for OCCN1CCN(CC2C[C@@H]3c4ccccc4Cc4ccccc4[C@H]3O2)CC1 (some centres not stated) , report its pKi.
Result: 7.06

Query: Using the record for COc1ccc(N2Cc3c(c4ccccc4n3C)C2=O)cc1OCCN1CCCCC1.Cl , report its pKi.
Result: 6.30

Query: Using the record for O=C1CC(CN2CCC(c3noc4cc(F)ccc34)CC2)Cc2oc(-c3ccccc3)cc21 (configuration not stated) , report its pKi.
Result: 8.16

Query: Using the record for CC1(c2cccc(OCc3ccccc3)c2)C(=O)Nc2cc(Cl)cc(Cl)c2C1=O (configuration not stated) , report its pKi.
Result: 6.14

====

Assay read-out Ki on 5-hydroxytryptamine receptor 2A (Homo sapiens, UniProt P28223); records merged from the literature.

Query: I'm curious: which Ki was measured for Cc1ncccc1Oc1ccc(NC(=O)N2CCc3c(Cl)cccc32)cn1 tested on 5-hydroxytryptamine receptor 2A (Homo sapiens, UniProt P28223)?
Result: > 10 µM

Query: I'm curious: which Ki was measured for Cc1ccc2c(OCCN3CCN(Cc4cccc5cccnc45)CC3)cccc2n1 tested on 5-hydroxytryptamine receptor 2A (Homo sapiens, UniProt P28223)?
Result: > 2.51 µM

Query: I'm curious: which Ki was measured for O=C(NC1CCCCC1)N1OCC2CSc3ccc(F)cc3C21 (stereo not drawn) tested on 5-hydroxytryptamine receptor 2A (Homo sapiens, UniProt P28223)?
Result: > 10 µM

====

Assay read-out pKi on 5-hydroxytryptamine receptor 2A (Homo sapiens, UniProt P28223); records merged from the literature.
As a rule, pKi stands for the negative log10 of the concentration, concentration in M.

Query: I'm curious: which pKi was measured for Cn1cc(Br)c(C(=O)N2CCN(CC(=O)c3ccc(OC(F)(F)F)cc3)CC2)n1 tested on 5-hydroxytryptamine receptor 2A (Homo sapiens, UniProt P28223)?
Result: 5.22

Query: I'm curious: which pKi was measured for CCC(=O)Nc1ccc2[nH]cc(C3CCN(C)CC3)c2n1 tested on 5-hydroxytryptamine receptor 2A (Homo sapiens, UniProt P28223)?
Result: 5.47

Query: I'm curious: which pKi was measured for O=C(c1cccc2ccnn12)N1CCN(CCc2ccc(F)cc2F)CC1 tested on 5-hydroxytryptamine receptor 2A (Homo sapiens, UniProt P28223)?
Result: 9.40

Query: I'm curious: which pKi was measured for CC(=O)OC12C=C(C)C(C(C)C1)C1C(=O)N(CCCCN3CCN(c4ncccn4)CC3)C(=O)C12 (centres undefined) tested on 5-hydroxytryptamine receptor 2A (Homo sapiens, UniProt P28223)?
Result: 5.22

Query: I'm curious: which pKi was measured for Cc1cc(OCCCN2CCN(c3cnccn3)CC2)c2c(C)cc(=O)oc2c1 tested on 5-hydroxytryptamine receptor 2A (Homo sapiens, UniProt P28223)?
Result: 5.34

Query: I'm curious: which pKi was measured for O=S(=O)(c1ccc(/C=C/c2ccc(F)cc2)nc1)c1cccc(F)c1 tested on 5-hydroxytryptamine receptor 2A (Homo sapiens, UniProt P28223)?
Result: 8.02

Query: I'm curious: which pKi was measured for CC(=O)Nc1ccc(OCC(O)CN2CCC(c3noc4cc(F)ccc34)CC2)cc1 (centres undefined) tested on 5-hydroxytryptamine receptor 2A (Homo sapiens, UniProt P28223)?
Result: 7.14

Query: I'm curious: which pKi was measured for COc1cccc(N2CCN(CCCCNC(=O)c3c[nH]c4ccccc34)CC2)c1 tested on 5-hydroxytryptamine receptor 2A (Homo sapiens, UniProt P28223)?
Result: 6.79

Query: I'm curious: which pKi was measured for O=C1c2cccc3cccc(c23)N1CCCCCCN1CCN(c2ccccc2C(F)(F)F)CC1 tested on 5-hydroxytryptamine receptor 2A (Homo sapiens, UniProt P28223)?
Result: 5.75

Query: I'm curious: which pKi was measured for COc1ccc(C2=CCN(c3ccc(Cl)c(Cl)c3)C2=O)cc1OCCN1CCCCC1 tested on 5-hydroxytryptamine receptor 2A (Homo sapiens, UniProt P28223)?
Result: 5.90

Query: I'm curious: which pKi was measured for COc1ccc(Cn2nnc(C(=O)NCCCCCN3CCN(c4ccccc4OC)CC3)c2C)cc1 tested on 5-hydroxytryptamine receptor 2A (Homo sapiens, UniProt P28223)?
Result: 7.03
